Species on record: Rattus norvegicus
Assay text: Open TG-GATES - Regimen: Daily Repeat
Format: toxicity, organism-based, Sprague-Dawley
Design: regimen Daily Repeat, gender Male, age 6 weeks
Run parameters: in vivo, po, 100 mg/kg, […], tissue Blood, route gavage, dose level Low, time 14 day
# Ht values compiled below
Quantity kind: Ht (%)

[[record]]
molecule = "Cc1nnc2n1-c1ccc(Cl)cc1C(c1ccccc1Cl)=NC2 [TRIAZOLAM]"
endpoint_value = 43.7

[[record]]
molecule = "CCOc1ccc(NC(C)=O)cc1 [PHENACETIN]"
endpoint_value = 43.4

[[record]]
molecule = "COC(=O)C1=C(C)NC(C)=C(C(=O)OC)C1c1ccccc1[N+](=O)[O-] [NIFEDIPINE]"
endpoint_value = 43.7

[[record]]
molecule = "CNC(=C[N+](=O)[O-])NCCSCc1ccc(CN(C)C)o1 [RANITIDINE]"
endpoint_value = 40.9

[[record]]
molecule = "O=C(OC[C@H]1O[C@@H](OC(=O)c2cc(O)c(O)c(OC(=O)c3cc(O)c(O)c(O)c3)c2)[C@H](OC(=O)c2cc(O)c(O)c(OC(=O)c3cc(O)c(O)c(O)c3)c2)[C@@H](OC(=O)c2cc(O)c(O)c(OC(=O)c3cc(O)c(O)c(O)c3)c2)[C@@H]1OC(=O)c1cc(O)c(O)c(OC(=O)c2cc(O)c(O)c(O)c2)c1)c1cc(O)c(O)c(OC(=O)c2cc(O)c(O)c(O)c2)c1 [TANNIC ACID]"
endpoint_value = 42.9

[[record]]
molecule = "CN/C(=N/CCSCc1nc[nH]c1C)NC#N [CIMETIDINE]"
endpoint_value = 43.9


Measured values drawn from ChEMBL document CHEMBL3885861 for this set.
